System: RPMI-8226 leukemia
Experiment: NCI-60 one-dose screen, 48 h
Details: 10 µM unless noted
About 83,000 compounds went through this panel and 20% of them were active in at least one assay; those are over-represented in the sample as a whole. Active and inactive are the calls of the source. How the source made its calls: active means growth percent below 10; inactive means the rest.
Please answer using one outcome listed in y for active, n for inactive

Before answering, review these 4 worked examples.
# COMPOUND, CLASS_ASSIGNMENT
measured = [
    ("O=C(CCCN1C(=O)/C(=C/c2ccccc2F)SC1=S)N1CCOCC1", "n"),
    ("CN(C)CCCNc1c2ccccc2nc2c1oc1ccc(Cl)cc12", "n"),
    ("COc1ccc(/C=C2\\SC(=Nc3cc(C)[nH]n3)NC2=O)cc1", "n"),
    ("COc1ccc(C(=O)c2cc(C(=O)/C=C/c3c(Cl)cccc3Cl)c3cc(C)ccn23)cc1", "n"),
]

**Query** Call for entry `Clc1ccc2c(OCCCN3CCOCC3)c3oc4ccccc4c3nc2c1` :
**Result** n

**Query** Call for entry `OC1CCN(CCCOc2c3ccccc3nc3c2oc2ccc(Cl)cc23)CC1` :
**Result** y

**Query** Call for entry `CC(C)NC(=O)c1cc(-c2ccc(NC(=O)Nc3ccc(N4CCOCC4)c(C(F)(F)F)c3)cc2)nc2cccnc12` :
**Result** n

**Query** Call for entry `CCN1CCN(/C(=N\c2sc(-c3ccccc3)nc2-c2ccccc2)c2ccccc2)CC1` :
**Result** n

**Query** Call for entry `Nc1c(C(=O)Nc2ccc(C(F)(F)F)cc2)sc2nc(-c3cnccn3)cc(-c3cccs3)c12` :
**Result** n

**Query** Call for entry OC1CCc2c(-c3ccc4ncnc(N5CCc6cc(F)c(Cl)cc65)c4c3)cncc21 (stereo not given) :
**Result** n

====

System: BT-549 breast
Experiment: NCI-60 one-dose screen, 48 h (100 = growth as untreated, 0 = no growth, -100 = all killed)
Conditions: 10 µM unless noted
This is part of a sample that, as a whole, favours compounds with a hit. Of some 83,000 tested, about 20% had one in any assay.
Short version: growth at least 80% is criterion met, less is criterion not met.

Before answering, review these 3 worked examples.
# COMPOUND, CLASS_ASSIGNMENT
records = [
    ("N#Cc1nc(-c2ccccc2)oc1S(N)(=O)=O", "criterion not met"),
    ("Clc1ccc2oc3c(NCCCn4ccnc4)c4ccccc4nc3c2c1", "criterion not met"),
    ("Cc1cc2nc3c4cc(Cl)ccc4n(CC(=S)NCCN(C)C)c3nc2cc1C", "criterion not met"),
]

**Query** Given the entry `Cc1cc2nc3c4cc(Cl)ccc4n(CC(=O)NCCN(C)C)c3nc2cc1C` , answer whether its growth meets or surpasses 80%.
**Result** criterion met

**Query** Given the entry `Nc1cc(-c2c[nH]c3ccc(Cl)cc23)nc2cc(-c3c[nH]c4ccc(Cl)cc34)nn12` , answer whether its growth meets or surpasses 80%.
**Result** criterion met

====

Test system: HT29 colon
Assay: NCI-60 one-dose screen, 48 h (100 = growth as untreated, 0 = no growth, -100 = all killed)
Conditions: 10 µM unless noted
About 83,000 compounds went through this panel and 20% of them were active in at least one assay; those are over-represented in the sample as a whole.
Short version: growth at least 80% is Condition met, less is Condition not met.

Before answering, review these 5 worked examples.
# MOLECULE, CLASS_ASSIGNMENT
measured = [
    ("CC(=O)Oc1ccccc1C(=O)Nc1cc(C(C)C)ccc1C", "Condition met"),
    ("OC1CCN(CCCOc2c3ccccc3nc3c2oc2ccccc23)CC1", "Condition not met"),
    ("Cn1c(SCC(=O)Nc2ccc(-c3nc4ccc([N+](=O)[O-])cc4[nH]3)cc2)nc2ccccc2c1=O", "Condition met"),
    ("O=C(Oc1ccc2ccc(=O)oc2c1)c1ccc(Cl)cc1", "Condition met"),
    ("CS(=O)(=O)c1ccc(-c2nc3ccccn3c2C=Nc2ccc(Cl)cc2)cc1", "Condition not met"),
]

// next entry
**Query** Given the entry `COc1cc(OC)c(S(=O)(=O)NNC(=O)c2ccncc2)cc1C(=O)/C=C/c1ccc(C)cc1` , answer whether its growth meets or surpasses 80%.
**Result** Condition met

====

Tested on: NCI/ADR-RES ovarian
Assay: NCI-60 one-dose screen, 48 h (100 = growth as untreated, 0 = no growth, -100 = all killed)
Conditions: 10 µM unless noted
About 83,000 compounds went through this panel and 20% of them were active in at least one assay; those are over-represented in the sample as a whole.
Property: growth; scope: individual compounds
Report the figure in % without appending any unit label.

# COMPOUND, growth / %
rows = [
    ("OC1CCc2c(-c3ccc4ncnc(N5CCc6cc(F)c(Cl)cc65)c4c3)cncc21 (stereo unspecified)", 51.1),
    ("CS(=O)(=O)c1ccc(-c2nc3ccccn3c2/C=N/Nc2nc(-c3ccc(Br)cc3)cs2)cc1", 107),
    ("Nc1cc(-c2c[nH]c3ccccc23)nc2cc(-c3c[nH]c4ccccc34)nn12", 59),
]

**Query** Please state recorded growth (tested on NCI/ADR-RES ovarian) of `C#C[C@]1(O)CC[C@H]2[C@@H]3CC=C4c5sc(-c6ccc(F)cn6)nc5CC[C@]4(C)[C@H]3CC[C@@]21C`
**Result** 44.8

**Query** Please state recorded growth (tested on NCI/ADR-RES ovarian) of `O=C(CCN1C(=O)/C(=C/c2ccccc2F)SC1=S)N1CCOCC1`
**Result** 99.8

**Query** Please state recorded growth (tested on NCI/ADR-RES ovarian) of COC(=O)C(C)NS(=O)(=O)/N=C1\NC(=O)NC1=C(Cl)Cl (stereo unspecified)
**Result** 105

**Query** Please state recorded growth (tested on NCI/ADR-RES ovarian) of CSCCC(C(=O)O)N1C(=O)/C(=C/c2ccc(O)c(O)c2)SC1=S (stereo unspecified)
**Result** 108

**Query** Please state recorded growth (tested on NCI/ADR-RES ovarian) of `Nc1cc(-c2c[nH]c3ccc(F)cc23)nc2cc(-c3c[nH]c4ccc(F)cc34)nn12`
**Result** 93

**Query** Please state recorded growth (tested on NCI/ADR-RES ovarian) of COC(=O)C(Cc1ccccc1)NS(=O)(=O)/N=C1\NC(=O)NC1=C(Cl)Cl (stereo unspecified)
**Result** 106

**Query** Please state recorded growth (tested on NCI/ADR-RES ovarian) of `O=c1[nH]c2ccccc2cc1CSc1ccccc1Nc1nccc(-c2ccc(C(F)(F)F)cc2)n1`
**Result** 63.2

====

System: OVCAR-4 ovarian
Test: NCI-60 one-dose screen, 48 h (100 = growth as untreated, 0 = no growth, -100 = all killed)
Conditions: 10 µM unless noted
Compounds without any hit were thinned out: in the full panel of roughly 83,000, 20% have a hit.
growth less than 50% is yes (1); growth greater than or equal to 50% is no (0).

# SMILES_RECORD, CLASS_ASSIGNMENT
measured = [
    ("Cc1ccc2ccc3ccc(C)nc3c2n1.Cc1ccc2ccc3ccc(C)nc3c2n1.Oc1c(Cl)cc(Cl)c2ccc(CN3CCCCC3)nc12.[Ru]", "yes (1)"),
    ("O=C(CSc1nc2sc3c(c2c(=O)n1-c1ccc(Cl)cc1)CCCC3)NNC(=O)Nc1cccc(C(F)(F)F)c1", "yes (1)"),
    ("Clc1ccc2oc3c(NCCCN4CCOCC4)c4ccccc4nc3c2c1", "yes (1)"),
    ("Clc1ccc2oc3c(NCCCn4ccnc4)c4ccccc4nc3c2c1", "no (0)"),
]

**Query** Would you kindly verify if growth of `O=C(N/N=C/c1ccc[nH]1)c1[nH]c2ccc(Br)cc2c1-c1ccccc1` is strictly less than 50%?
**Result** yes (1)

====

System: PC-3 prostate
Test: NCI-60 one-dose screen, 48 h (100 = growth as untreated, 0 = no growth, -100 = all killed)
Conditions: 10 µM unless noted
This is part of a sample that, as a whole, favours compounds with a hit. Of some 83,000 tested, about 20% had one in any assay. The source made the active and inactive calls. How the source made its calls: active means growth percent below 10; inactive means the rest.
Property: growth; scope: individual molecules

**Query** Please state recorded growth (tested on PC-3 prostate) of `C/C(=N/NC(N)=S)c1ccc(Nc2nc(SCC(C)C)nc(-c3ccc(F)cc3)c2C#N)cc1`
**Result** -14.5% (active)

====

Test system: SK-MEL-28 melanoma
Experiment: NCI-60 one-dose screen, 48 h
Conditions: 10 µM unless noted
This is part of a sample that, as a whole, favours compounds with a hit. Of some 83,000 tested, about 20% had one in any assay. Activity calls are given as the source filed them. The calls were made as follows: active = growth percent below 10; inactive = the rest.
Please answer using one outcome listed in 1 for active, -1 for inactive

Before answering, review these 8 worked examples.
# MOLECULE, CLASS_ASSIGNMENT
records = [
    ("OC1CCN(CCCOc2c3ccc(Cl)cc3nc3c2oc2ccc(Cl)cc23)CC1", 1),
    ("O=C(CSc1nccc(=O)[nH]1)Nc1ccc(-c2nc3ccccc3[nH]2)cc1", -1),
    ("C=CCSc1ccc2c(c1)C(N1CCNCC1)=Nc1ccccc1O2", -1),
    ("O=C1Nc2ccc(Cl)cc2/C1=C/c1ccc(OCC(=O)c2ccc(Br)cc2)cc1", -1),
    ("CCN1C(=S)N(CC)C2C1N=C(SC)N2/N=C/C=C/c1ccccc1[N+](=O)[O-] (stereo unspecified)", -1),
    ("COc1ccc(Cc2nn(CC(=O)N/N=C/c3ccc(Cl)cc3)c(=O)c3c(C)noc23)cc1", -1),
    ("C#Cc1nc(C2=C(C)/C(=N/OCc3ccccc3)CC2)cs1", -1),
    ("CCC/C=C/C=C/C(=O)N[C@@H](Cc1cc(F)cc(F)c1)C(=O)N[C@@H]1C(=O)N2CCC[C@H]2C(=O)N2CCCC[C@H]2C(=O)N[C@@H](C)C(=O)N2C[C@H](C)C[C@H]2C(=O)O[C@H]1C", -1),
]

**Query** Call for entry `N#Cc1ccc(C(=O)CSc2nc(Nc3ccc(S(N)(=O)=O)cc3)c3ccccc3n2)cc1` :
**Result** -1

**Query** Call for entry COC(=O)C(C)NS(=O)(=O)/N=C1\NC(=O)NC1=C(Cl)Cl (stereo unspecified) :
**Result** -1

**Query** Call for entry `Cc1nc(-c2cc3ccccc3oc2=O)ccc1C(=O)/C=C/c1ccc(N2CCOCC2)cc1` :
**Result** -1

**Query** Call for entry `OC1CCN(CCCOc2c3ccccc3nc3c2oc2ccccc23)CC1` :
**Result** 1

**Query** Call for entry `CCOC(=O)c1sc(N)c(C(=O)OCC)c1C` :
**Result** -1

**Query** Call for entry `Nc1cc(-c2c[nH]c3ccc(Cl)cc23)nc2cc(-c3c[nH]c4ccc(Cl)cc34)nn12` :
**Result** -1

**Query** Call for entry `COc1ccc(-c2nc3ccc(-c4nnc(SCC(=O)Nc5ccc(C(C)=O)cc5)o4)cc3[nH]2)cc1` :
**Result** -1

**Query** Call for entry `CC(C)(C)Nc1nc2c(OCCc3ccccc3)cccn2c1-c1ccc(Cl)cc1` :
**Result** -1

**Query** Call for entry `CCOC(=O)c1c(Nc2ccccc2)nn2c(N)c(C#N)c(-c3ccc(Cl)cc3)nc12` :
**Result** -1

**Query** Call for entry `Nc1c(C(=O)c2ccc(Br)cc2)oc2nc(-c3cnccn3)cc(-c3cccs3)c12` :
**Result** -1
